Test system: Meyerozyma guilliermondii
METHOD DESCRIPTION: Antifungal activity against Candida guilliermondii ATCC 6260 assessed as growth inhibition after 48 hrs by broth microdilution method
Type: functional
MEASUREMENT SETUP: ATCC 6260, 48 h
READOUT TYPE: MIC95 (µg/mL)
Answer with a number only, understood to be in µg/mL.

get_value(item= COc1ccc(/C=C/c2cc(O)cc(OC)c2)cc1 , readout=MIC95) returns 18

Value of MIC95 reported for the molecule COc1cc(/C=C/c2ccc(O)cc2)cc(OC)c1 is 7

Value of MIC95 reported for the molecule Nc1nc(=O)[nH]cc1F is 2

----------
Each entry below carries its recorded MIC95.
Test system: [Candida] inconspicua
METHOD DESCRIPTION: Antifungal activity against Candida inconspicua clinical isolate assessed as growth inhibition after 48 hrs by broth microdilution method
Type: functional
MEASUREMENT SETUP: Pichia inconspicua

// assay [Candida] inconspicua, entry Nc1nc(=O)[nH]cc1F [FLUCYTOSINE] , MIC95 value = 4 µg/mL

Known value: [Candida] inconspicua MIC95 of the compound Oc1ccc([C@H]2Oc3ccc(/C=C/c4cc(O)cc5c4[C@@H](c4cc(O)cc(O)c4)[C@H](c4ccc(O)cc4)O5)cc3[C@@H]2c2cc(O)cc3c2[C@H](c2cc(O)cc(O)c2)[C@@H](c2ccc(O)cc2)O3)cc1 (mixture of isomers) equals 300 µg/mL

The compound COc1cc(O)cc(/C=C/c2ccc(O)cc2)c1 on [Candida] inconspicua: MIC95 was 300 µg/mL

Simply: COc1ccc(/C=C/c2cc(O)cc(O)c2)cc1 [RESVERATROL 4'-METHYL ETHER] , [Candida] inconspicua, MIC95 = 300 µg/mL

Others:
Readout MIC95 for COc1ccc(/C=C/c2cc(O)cc(OC)c2)cc1 , test system [Candida] inconspicua, was 37 µg/mL

Observed MIC95 on [Candida] inconspicua, entry COc1cc(/C=C/c2ccc(O)cc2)cc(OC)c1 [PTEROSTILBENE] , equals 28 µg/mL

----------
System: Pichia norvegensis
METHOD DESCRIPTION: Antifungal activity against Candida norvegensis clinical isolate assessed as growth inhibition after 48 hrs by broth microdilution method
Type: functional
READOUT TYPE: log10(MIC95) (log10 of the value in µg/mL)
Heads up, the numbers here are log10 of MIC95 in µg/mL units.

Sample answers from the record:
Tested on Pichia norvegensis, the item Oc1ccc([C@H]2Oc3ccc(/C=C/c4cc(O)cc5c4[C@@H](c4cc(O)cc(O)c4)[C@H](c4ccc(O)cc4)O5)cc3[C@@H]2c2cc(O)cc3c2[C@H](c2cc(O)cc(O)c2)[C@@H](c2ccc(O)cc2)O3)cc1 (mixture of isomers) showed log10(MIC95) equal to 2.48

Pichia norvegensis log10(MIC95) of Nc1nc(=O)[nH]cc1F is 0.60

# log10(MIC95) measured on Pichia norvegensis for item COc1ccc(/C=C/c2cc(O)cc(O)c2)cc1 = 1.88

Summary: COc1cc(O)cc(/C=C/c2ccc(O)cc2)c1 , Pichia norvegensis, log10(MIC95) = 2.48

More entries:
Entry COc1cc(/C=C/c2ccc(O)cc2)cc(OC)c1 under Pichia norvegensis had log10(MIC95) of 1.45

Note to self: log10(MIC95) of COc1ccc(/C=C/c2cc(O)cc(OC)c2)cc1 with Pichia norvegensis was 1.57
